B1: TPR t1 (parent)
chain: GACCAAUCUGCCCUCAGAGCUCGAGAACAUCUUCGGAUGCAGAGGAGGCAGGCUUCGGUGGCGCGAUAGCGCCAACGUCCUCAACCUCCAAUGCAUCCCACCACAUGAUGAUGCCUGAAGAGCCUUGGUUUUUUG

Variants of: B1
Assay: polymerase ribozyme fitness, log enrichment relative to wild type (log ratio); higher = more active; in vitro selection for triplet polymerase activity
Parameter class (string): assigned from measured polymerase ribozyme fitness (log ratio). Ranges: zone 1 = under -2, zone 2 = from -2 up to -0.4, zone 3 = -0.4 and over

| mutationDescriptor | category |
| --- | --- |
| C53A G63A C124U U129C U134G | zone 3 |
| A6G C11G A118U | zone 3 |
| C11G G25C G39A C56A U67G C72A C82A A111C | zone 1 |
| G113A G122C G135C | zone 2 |

Here is another variant to look at.
Enquiry: Any idea which band A6U C12A A103U is in?
Return: zone 1
